Reference source: the supplement of paper PMC8728848

studyTarget: Fuc(a1-2)Gal(b1-4)Glc6S
assayInfo: glycan array binding signal (z-score within array); higher = stronger binding
assaySetup: glycan notation: IUPAC condensed, linker removed
The entries come from a sample that favours the strongest signals as a whole.
Provide the reported glycan array binding signal (z-score) of each item.

What value of glycan array binding signal (z-score) has been recorded for this entry: AFL (Aspergillus fumigatus), Q4WW81 (protein) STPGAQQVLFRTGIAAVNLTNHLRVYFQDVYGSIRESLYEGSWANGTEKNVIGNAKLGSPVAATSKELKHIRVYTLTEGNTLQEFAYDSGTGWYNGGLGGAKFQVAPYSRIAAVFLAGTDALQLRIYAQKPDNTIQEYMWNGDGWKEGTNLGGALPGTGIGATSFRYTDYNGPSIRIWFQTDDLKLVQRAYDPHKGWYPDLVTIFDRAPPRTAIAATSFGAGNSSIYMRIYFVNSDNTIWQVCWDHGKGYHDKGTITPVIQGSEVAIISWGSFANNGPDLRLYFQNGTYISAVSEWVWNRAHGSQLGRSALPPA
3.64

Also CV-2L (Chromobacterium violaceum), Q7NX84 (protein) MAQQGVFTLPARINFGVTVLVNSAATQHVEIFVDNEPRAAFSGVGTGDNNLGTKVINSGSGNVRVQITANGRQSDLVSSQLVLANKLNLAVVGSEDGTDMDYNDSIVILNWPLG , if possible.
4.43

Also Pwp1 (Candida glabrata) (protein) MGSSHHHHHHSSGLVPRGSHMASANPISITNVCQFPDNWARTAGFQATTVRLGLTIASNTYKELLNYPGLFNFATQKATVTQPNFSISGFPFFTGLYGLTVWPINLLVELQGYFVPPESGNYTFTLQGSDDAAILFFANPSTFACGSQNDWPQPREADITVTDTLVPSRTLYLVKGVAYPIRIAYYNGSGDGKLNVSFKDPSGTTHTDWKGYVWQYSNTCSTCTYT , if possible.
-0.871
